assay: Toxicity liver stage against HepG2, at 10uM; format: cell-based; set-up: test concentration 10 uM, cell line HepG2-A16-CD81EGFP; details: human, HepG2-A16-CD81EGFP cells; read-out: INHIBITION
QUANTITY_MEASURED: cytotoxicity at 10 µM (%)
Your answer should be a plain number; it is taken to be in %.

CC1CN(C(=O)c2cc(=O)[nH]c3ccc(F)cc23)CCO1 (configuration not stated) : 19.3
Fc1ccc(CN2CCC(c3nccnc3-n3ccnc3)CC2)cc1 : -0.259
Cc1ccccc1C(=O)NCC(=O)NCc1ccccn1 : -11.9

**Q:** So what does the record say about cytotoxicity at 10 µM for `CC(C)(C)c1ccc(S(=O)(=O)CCN2CCNC(=O)CC2)cc1` ?
**A:** -5.41

**Q:** Also, Cc1nn(CC(=O)N2CCCC2Cn2cccn2)c(C)c1Cl (configuration not stated) please.
**A:** 2.27

**Q:** Also, Cc1nc(Nc2ncccn2)cc(C2CCN(CC(C)C)C2)n1 (configuration not stated) please.
**A:** -16.1

**Q:** Also, `O=C(NCCCN1CCCC1=O)Nc1ccc(Br)cc1Cl` please.
**A:** -2.18

**Q:** Also, O=C(Cc1c[nH]c2ncccc12)NCC(O)c1ccccc1F (configuration not stated) please.
**A:** -3.43

**Q:** Also, `CN(Cc1cccc(C#N)c1)Cc1nc2c(cnn2C)c(=O)[nH]1` please.
**A:** -8.7

**Q:** Also, `Cc1nc(N(C)C)nc(N(C)CCc2ccncc2)c1C` please.
**A:** 1.37

**Q:** Also, Cc1ccc(CN2CCOC3(CCCN(C(=O)c4ccco4)C3)C2)o1 (configuration not stated) please.
**A:** -3.27

**Q:** Also, `CN(C)C1(CNc2ncc(Br)cn2)CCOCC1` please.
**A:** -8.66
